Where these numbers come from: the emibetuzumab library of Makowski et al. (2022)

B1: VH:VL chains; a variant is named by its letters at X, in order (parent)
chain 1: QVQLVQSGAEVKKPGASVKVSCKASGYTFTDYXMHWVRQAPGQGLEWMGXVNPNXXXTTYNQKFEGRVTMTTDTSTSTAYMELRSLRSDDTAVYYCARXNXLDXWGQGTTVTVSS
chain 2: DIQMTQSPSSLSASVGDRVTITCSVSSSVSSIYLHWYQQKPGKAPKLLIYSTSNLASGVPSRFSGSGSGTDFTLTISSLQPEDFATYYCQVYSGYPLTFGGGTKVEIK

# Variants of: B1
# assay notes: yeast display scFab, FACS + sequencing

| mutant id | non-specific binding call |
| --- | --- |
| DATGGASD | no binding |
| YRRGAAAV | binds |
| VTEGDAGD | no binding |
| YRGRGSSF | binds |
| YTRGAAVA | no binding |
| YRRGDAAF | binds |
| FRRGGAAS | binds |
| VARADSGV | no binding |
| VRGGDAAS | no binding |
| YRRGSYVY | binds |
| YGGRGDWV | no binding |
| VTGESDWY | no binding |
| DEGGTAVV | no binding |
| FRGGGSVS | binds |
| VEGGGYGV | no binding |
| YAEESSSA | no binding |
| YRTGASSD | binds |
| FRGADFGD | binds |
| VEEAAAGV | no binding |
| VEGTSDVV | no binding |
| FRTRSSGV | binds |
| SEARSDVF | no binding |
| VTGRGDVA | no binding |
| VTGTGDAD | no binding |
| FRAGGAAV | binds |
| SKERGDVV | no binding |
| STTRGAVA | no binding |
| SAERSAAF | no binding |
| YRKRGSLY | binds |
| YAEESAGD | no binding |
| YTKAASWV | no binding |
| YRAGGYVD | binds |
| YAGKSAGD | no binding |
| FRKRGAWY | binds |
| YRAKGSWD | binds |
| DGGKNAVA | no binding |
| DEGGTDGV | no binding |
| YRARGSAD | binds |
| FAEGDDVA | no binding |
| YAGRGVVD | binds |
| FRARSAAA | binds |
| YEGTGSAD | no binding |
| VKGRGSAY | binds |
| YRGRGYVS | binds |
| DEEEGSAA | no binding |
| VRTRGSSS | binds |
